- assay_text: Cytotoxicity against HOSEC at 10 to 50 uM by MTT assay relative to control
- test_conditions: human
measurement_kind: Activity

Return value of Activity for input COc1ccc(N2C(=O)N(C)C(=O)C2c2cc(OC)c(OC)c(OC)c2)cc1N (stereo unspecified) , no commentary.
≤ 33%
